Tested on: MDA-MB-231/ATCC
test.method.notes: NCI growth inhibition and cytotoxicity screen, Breast Cancer panel
condition.info: Homo sapiens, MDA-MB-231
property.measured: GI50 (nM)
One number for each entry, in nM.

Lab note: each molecule below needs its GI50 filled in.
1. COc1cc(/C(C#N)=C/c2cnc3ccccc3c2)cc(OC)c1OC
2. COc1cc(OC)cc(/C(C#N)=C/c2cnc3ccccc3c2)c1
3. COc1cc(/C=C/c2nc3ccccc3s2)cc(OC)c1OC

1: 2830; 2: 1150; 3: 0.71

* * *

Reported GI50 values, 786-0.
Give bare numbers, in nM.

The cases that follow already have their GI50 on record.
COc1cc(/C=C/c2cc3ccccc3o2)cc(OC)c1OC [Formula (I)(c)]: 0.85
COc1cc(/C=C/c2nc3ccccc3s2)cc(OC)c1OC [Formula (I)(d)]: 1.32
COc1cc(/C(C#N)=C/c2cnc3ccccc3c2)cc(OC)c1OC [PNR-5-10]: 6290
COc1cc(OC)cc(/C(C#N)=C/c2cnc3ccccc3c2)c1 [PNR-4-85]: 484
COc1cc(OC)cc(/C(C#N)=C/c2c[nH]c3ccccc23)c1 [Formula (I)(b)]: 77.3

Batch: GI50 for all items listed.
1. COc1cc(OC)cc(/C(C#N)=C/c2ccc3ccccc3n2)c1 [PNR-4-84]
2. COc1cc(/C(C#N)=C/c2ccc3ccccc3n2)cc(OC)c1OC [PNR-4-90]

1: 501; 2: 445

* * *

# CCRF-CEM: GI50 values follow

Past entries and their recorded results:
COc1cc(/C(C#N)=C/c2ccc3ccccc3n2)cc(OC)c1OC: 248 nM
COc1cc(OC)cc(/C(C#N)=C/c2cnc3ccccc3c2)c1: 332 nM
COc1cc(OC)cc(/C(C#N)=C/c2c[nH]c3ccccc23)c1: 42.4 nM
COc1cc(/C(C#N)=C\c2cc3ccccc3s2)cc(OC)c1OC: < 10 nM
COc1cc(/C=C/c2nc3ccccc3s2)cc(OC)c1OC: 0.13 nM

For every record below, what is its GI50?
1. COc1cc(/C(C#N)=C/c2cnc3ccccc3c2)cc(OC)c1OC
2. COc1cc(/C=C/c2cc3ccccc3o2)cc(OC)c1OC
3. COc1cc(OC)cc(/C(C#N)=C/c2ccc3ccccc3n2)c1

1380 nM
0.42 nM
332 nM

* * *

System: OVCAR-3
Kindly supply the reported GI50 values for the records listed here.
Answers are plain numbers, in nM.

Answer for every listed entry: what is its GI50? The entries follow.
1. COc1cc(/C(C#N)=C/c2ccc3ccccc3n2)cc(OC)c1OC [PNR-4-90]
2. COc1cc(OC)cc(/C(C#N)=C/c2cnc3ccccc3c2)c1 [PNR-4-85]
3. COc1cc(/C=C/c2nc3ccccc3s2)cc(OC)c1OC [Formula (I)(d)]
4. COc1cc(/C(C#N)=C/c2cnc3ccccc3c2)cc(OC)c1OC [PNR-5-10]

1: 163; 2: 279; 3: 0.069; 4: 263

* * *

System: HL-60(TB)
We label by threshold. Values of GI50 strictly beneath 30 nM are Yes. Values of 30 nM and up are No.

Report whether reported GI50 is lower than 30 nM (strictly) for "COc1cc(/C=C/c2cc3ccccc3o2)cc(OC)c1OC" Yes

Query "COc1cc(OC)cc(/C(C#N)=C/c2c[nH]c3ccccc23)c1" next No

Then this compound: "COc1cc(OC)cc(/C(C#N)=C/c2ccc3ccccc3n2)c1" No

What do we get for "COc1cc(/C(C#N)=C/c2ccc3ccccc3n2)cc(OC)c1OC" ? No

Next: "COc1cc(OC)cc(/C(C#N)=C/c2cnc3ccccc3c2)c1" No

Then "COc1cc(/C(C#N)=C\c2cc3ccccc3s2)cc(OC)c1OC" ? Yes

Cool, now "COc1cc(/C(C#N)=C/c2cnc3ccccc3c2)cc(OC)c1OC" No

Can you check "COc1cc(/C=C/c2nc3ccccc3s2)cc(OC)c1OC" next? Yes

* * *

# UACC-257: GI50 values follow
One number for each entry, in µM.

The cases that follow already have their GI50 on record.
COc1cc(/C=C/c2nc3ccccc3s2)cc(OC)c1OC: 0.015
COc1cc(OC)cc(/C(C#N)=C/c2c[nH]c3ccccc23)c1: 0.0487
COc1cc(/C(C#N)=C/c2ccc3ccccc3n2)cc(OC)c1OC: 0.761
COc1cc(/C=C/c2cc3ccccc3o2)cc(OC)c1OC: 0.0164

Here is the next item to consider.
Field request: GI50 | item: "COc1cc(OC)cc(/C(C#N)=C/c2cnc3ccccc3c2)c1" 12.8

* * *

Provide the reported GI50 of each item.
Tested on: HCT-15
test.method.notes: NCI growth inhibition and cytotoxicity screen, Colon Cancer panel
condition.info: Homo sapiens, HCT-15
Answers are plain numbers, in nM.

Example molecules with recorded GI50:
COc1cc(OC)cc(/C(C#N)=C/c2ccc3ccccc3n2)c1 [PNR-4-84]: 409
COc1cc(/C=C/c2nc3ccccc3s2)cc(OC)c1OC [Formula (I)(d)]: 0.063
COc1cc(OC)cc(/C(C#N)=C/c2c[nH]c3ccccc23)c1 [Formula (I)(b)]: 53.5
COc1cc(/C=C/c2cc3ccccc3o2)cc(OC)c1OC [Formula (I)(c)]: 0.4
COc1cc(OC)cc(/C(C#N)=C/c2cnc3ccccc3c2)c1 [PNR-4-85]: 455

For every item in the list below, what is its measured GI50?
1. COc1cc(/C(C#N)=C/c2cnc3ccccc3c2)cc(OC)c1OC [PNR-5-10]
2. COc1cc(/C(C#N)=C/c2ccc3ccccc3n2)cc(OC)c1OC [PNR-4-90]

1080
319

* * *

Observed GI50, system HCT-116.

Observe how each entry below is paired with its result.
COc1cc(OC)cc(/C(C#N)=C/c2c[nH]c3ccccc23)c1: 42.5 nM
COc1cc(/C(C#N)=C/c2ccc3ccccc3n2)cc(OC)c1OC: 234 nM
COc1cc(OC)cc(/C(C#N)=C/c2cnc3ccccc3c2)c1: 420 nM
COc1cc(/C(C#N)=C\c2cc3ccccc3s2)cc(OC)c1OC: < 10 nM
COc1cc(/C=C/c2nc3ccccc3s2)cc(OC)c1OC: 0.0072 nM
COc1cc(OC)cc(/C(C#N)=C/c2ccc3ccccc3n2)c1: 416 nM
COc1cc(/C(C#N)=C/c2cnc3ccccc3c2)cc(OC)c1OC: 464 nM

# GI50 lookup, item "COc1cc(/C=C/c2cc3ccccc3o2)cc(OC)c1OC" 0.522 nM

* * *

Test system: SF-539
test.method.notes: NCI growth inhibition and cytotoxicity screen, CNS Cancer panel
condition.info: Homo sapiens, SF-539, read-out: LC50
property.measured: CC50 (µM)
Numbers only, in µM.

COc1cc(OC)cc(/C(C#N)=C/c2c[nH]c3ccccc23)c1: 90.2

// for each molecule in input: emit CC50
1. COc1cc(OC)cc(/C(C#N)=C/c2ccc3ccccc3n2)c1
2. COc1cc(/C=C/c2nc3ccccc3s2)cc(OC)c1OC

1. 8.03
2. 56.2

* * *

Assignment: determine reported CC50 for the given molecules.
Tested on: SF-268
test.method.notes: NCI growth inhibition and cytotoxicity screen, CNS Cancer panel
condition.info: Homo sapiens, SF-268, read-out: LC50

COc1cc(/C(C#N)=C\c2cc3ccccc3s2)cc(OC)c1OC: > 100 µM
COc1cc(/C(C#N)=C/c2cnc3ccccc3c2)cc(OC)c1OC: > 100 µM

Okay, now this molecule:
Dear colleague, I am looking for the recorded CC50 of the following molecule: "COc1cc(/C=C/c2cc3ccccc3o2)cc(OC)c1OC" > 100 µM

* * *

Could you please report measured GI50 for the items listed next?
Test system: RXF 393
Give bare numbers, in nM.

Field: example entries. Status: answers known.
COc1cc(OC)cc(/C(C#N)=C/c2cnc3ccccc3c2)c1: 297
COc1cc(/C=C/c2cc3ccccc3o2)cc(OC)c1OC: 0.32
COc1cc(/C=C/c2nc3ccccc3s2)cc(OC)c1OC: 0.14
COc1cc(OC)cc(/C(C#N)=C/c2ccc3ccccc3n2)c1: 334
COc1cc(/C(C#N)=C/c2cnc3ccccc3c2)cc(OC)c1OC: 579
COc1cc(/C(C#N)=C/c2ccc3ccccc3n2)cc(OC)c1OC: 271

Consider the compound shown here: "COc1cc(OC)cc(/C(C#N)=C/c2c[nH]c3ccccc23)c1" What is its recorded GI50? 83.7

* * *

Here we list compounds with their recorded GI50 when tested on SR.
Answers are plain numbers, in nM.

COc1cc(OC)cc(/C(C#N)=C/c2c[nH]c3ccccc23)c1: 33.4

State the recorded GI50 for every item in the following list.
1. COc1cc(/C=C/c2cc3ccccc3o2)cc(OC)c1OC
2. COc1cc(/C=C/c2nc3ccccc3s2)cc(OC)c1OC
3. COc1cc(/C(C#N)=C/c2cnc3ccccc3c2)cc(OC)c1OC

1. 0.09
2. 0.036
3. 569

Hey, just so you know, these numbers are from patent US9884842B2.
